SYSTEM_TESTED: KCNQ2/3 channels (Homo sapiens, UniProt O43525+O43526)
Construct: expressed in transfected cells; host or cells: CHO-K1 cells, kept under selection antibiotics
ASSAY_REMARKS: Fluorescence assay using a voltage sensitive dye (fluorimetry)
Assay type: cell-based
CONDITION_DETAILS: CHO-K1 cells expressing KCNQ2/3 channels; relative to retigabine = 100%; read-out: Fluorimetry % efficacy (retigabine = 100%)
Procedure: Pharmacological Experiments Method I. Fluorescence Assay Using a Voltage Sensitive Dye (Fluorimetry) […] Before being sown out for the measurements, the cells are washed with 1×DPBS buffer Ca^2+/Mg^2+-free (e.g. Invitrogen, #14190-094) and detached from the bottom of the culture vessel by using Accutase (PAA Laboratories, #L11-007) (incubation with Accutase for 15 min at 37° C.). The cell number is determined using a CASY™ cell counter (TCC, Schärfe System). […]
ENDPOINT: Emax (%)

molecule="CCNc1nc2cc(C(F)(F)F)ccc2c(C)c1C(=O)NCc1ccc(F)cc1 [Example 8]" measured_number=157

(P) CNc1nc2cc(C(F)(F)F)ccc2c(C)c1C(=O)NCc1cccc(F)c1 [Example 9]
(Q) Cc1c(C(=O)NCc2cccc(F)c2)c(N2CCOCC2)nc2cc(C(F)(F)F)ccc12 [Example 10]
Incoming: Sorting by Emax in descending order, would P or Q appear first? Please respond with the label that marks your chosen entry.
Outgoing: Q
